What change in vivo at 0.0025 mg/kg was measured for each of the following?
tested on: conscious dogs; experiment: Gastric emptying of an acaloric liquid test meal delayed by administration of lidamidine, in conscious dogs; format: in vivo, beagle dogs; conditions: Canis lupus familiaris, compounds; dose 0.0025 mg/kg; conscious dog; Δt = t 70% compound minus t 70% solvent, relative to t 70% solvent; read-out: ΔT/T^b (acceleration of gastric emptying of a liquid meal delayed by lidamidine)
Numbers only, in %.

Use the examples below as a reference point.
CCCCN1CC[C@@H](CNC(=O)c2cc(Cl)c(N)c3c2OCCC3)[C@H](O)C1 (relative stereo) [Compound 78]    -33
COCCCN1CC[C@@H](CNC(=O)c2cc(Cl)c(N)c3c2OCC3)[C@H](O)C1 (relative stereo) [Compound 3]    -51

Give change in vivo at 0.0025 mg/kg for each listed item.
1. CO[C@@H]1CN(CCCC(C)=O)CC[C@H]1CNC(=O)c1cc(Cl)c(N)c2c1OCC2 (relative stereo) [Compound 28]
2. CC(=O)CCCN1CC[C@H](CNC(=O)c2cc(Cl)c(N)c3c2OCC3)[C@H](O)C1 (relative stereo) [Compound 4]
3. CCCCN1CC[C@@H](CNC(=O)c2cc(Cl)c(N)c3c2OCC3)[C@H](O)C1 (relative stereo) [Compound 2]
4. COCCCN1CC[C@@H](CNC(=O)c2cc(Cl)c(N)c3c2OCC3)[C@H](OC)C1 (relative stereo) [Compound 30]
5. CC(=O)CCCN1CC[C@@H](CNC(=O)c2cc(Cl)c(N)c3c2OCC3)[C@H](O)C1 (relative stereo) [Compound 5]

1: -42; 2: -21; 3: -61; 4: -55; 5: -57

Bench note: what change in vivo at 0.0025 mg/kg did CCCCN1CC[C@@H](CNC(=O)c2cc(Cl)c(N)c3c2OCCO3)[C@H](O)C1 (relative stereo) [Compound 55] show? -18

Cited source for all entries: patent USRE40793E1
